# Tested on: AR 1.0 cells
# Assay notes: Potentiation of doxorubicin toxicity (fixed doxorubicin 0.86 μM, proliferation, sulphorhodamine B)
# Assay type: cell-based, mouse
# Assay context: with doxorubicin 0.86 μM; four day incubation; 5760 min; read-out: Toxicity with cytotoxic agent (IC50)
pIC50: −log10 of the molar value.
Please note: Fulfilled applies when pIC50 is 6 or greater, and Not fulfilled applies otherwise.

Worked set:
[
  {
    "Molecule": "COc1cc2c(cc1OC)CN(CCNC(=O)c1cccc(/C=c3\\[nH]c(=O)/c(=C/c4ccccc4)n(C)c3=O)c1)CC2",
    "System name": "AR 1.0 cells",
    "Class assignment": "Not fulfilled"
  },
  {
    "Molecule": "COc1ccc(N2CCN(C(=O)c3ccc(/C=c4\\[nH]c(=O)/c(=C/c5ccccc5)n(C)c4=O)cc3)CC2)cc1.Cl [Compound 9071, hydrochloride]",
    "System name": "AR 1.0 cells",
    "Class assignment": "Fulfilled"
  },
  {
    "Molecule": "COc1ccc(CCNC(=O)c2ccc(/C=c3\\[nH]c(=O)/c(=C/c4ccccc4)n(C)c3=O)cc2)cc1OC",
    "System name": "AR 1.0 cells",
    "Class assignment": "Not fulfilled"
  },
  {
    "Molecule": "CN(C)CC(O)COc1ccc(/C=c2\\[nH]c(=O)/c(=C/c3ccccc3)n(C)c2=O)cc1 (stereo not drawn)",
    "System name": "AR 1.0 cells",
    "Class assignment": "Not fulfilled"
  }
]

q: Tell me whether pIC50 is at least 6 here: COc1cc2c(cc1OC)CN(CCNC(=O)c1ccc(/C=c3\[nH]c(=O)/c(=C/c4ccccc4)n(C)c3=O)cc1)CC2
a: Not fulfilled
